These entries and their values trace back to patent US20260014095A1.

# procedure.text: Solubility test of colchicine in solvents
# Assay type: physicochemical
# measurement.parameters: 1 M triethanolamine (TEOA) in ethanol, organic solvent or mixture, thermodynamic from solid; 1M solution of TEOA (triethanolamine) in ethanol, 25° C.
attribute.measured: solubility at 24 h (mg/mL)
Answers are plain numbers, in mg/mL.

Requested read-out: solubility at 24 h. Entry: COc1cc2c(c(OC)c1OC)-c1ccc(OC)c(=O)cc1[C@@H](NC(C)=O)CC2 [colchicine] 740

* * *

# procedure.text: Solubility test of colchicine in solvents
# Format: physicochemical
# measurement.parameters: organic solvent or mixture, thermodynamic from solid; Ethyl acetate, 25° C.
attribute.measured: solubility at 24 h (µg/mL)
Give bare numbers, in µg/mL.

Please look up its solubility at 24 h: COc1cc2c(c(OC)c1OC)-c1ccc(OC)c(=O)cc1[C@@H](NC(C)=O)CC2 [colchicine] 480

* * *

# procedure.text: Solubility test of colchicine in solvents
# Type: physicochemical
# measurement.parameters: organic solvent or mixture, thermodynamic from solid; DGME (diethylene glycol monoethyl ether), 25° C.
attribute.measured: solubility at 24 h (mg/mL)
Answers are plain numbers, in mg/mL.

Name the reported solubility at 24 h value associated with the compound COc1cc2c(c(OC)c1OC)-c1ccc(OC)c(=O)cc1[C@@H](NC(C)=O)CC2 [colchicine] 350

* * *

# procedure.text: Solubility test of colchicine in solvents
# Assay type: physicochemical
# measurement.parameters: thermodynamic from solid; water, 25° C.
attribute.measured: solubility at 24 h

Can you look up the measured solubility at 24 h of COc1cc2c(c(OC)c1OC)-c1ccc(OC)c(=O)cc1[C@@H](NC(C)=O)CC2 for me? > 1000 mg/mL
